Entry source: ChEMBL document CHEMBL1139176

Target: UniProt P11597
Sequence (P11597 whole entry): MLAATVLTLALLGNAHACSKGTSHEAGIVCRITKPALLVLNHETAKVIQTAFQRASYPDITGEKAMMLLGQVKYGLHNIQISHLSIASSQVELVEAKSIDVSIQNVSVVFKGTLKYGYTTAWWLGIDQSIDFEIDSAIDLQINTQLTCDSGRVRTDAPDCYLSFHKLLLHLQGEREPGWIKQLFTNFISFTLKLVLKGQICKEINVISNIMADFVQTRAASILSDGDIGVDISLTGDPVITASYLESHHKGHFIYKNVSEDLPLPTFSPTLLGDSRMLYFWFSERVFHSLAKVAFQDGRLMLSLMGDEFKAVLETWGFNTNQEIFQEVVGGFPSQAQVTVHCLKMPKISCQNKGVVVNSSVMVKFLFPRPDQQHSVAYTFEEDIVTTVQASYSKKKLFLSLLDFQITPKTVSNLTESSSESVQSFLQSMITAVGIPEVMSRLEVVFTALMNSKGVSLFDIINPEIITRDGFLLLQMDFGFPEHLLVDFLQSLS
Assay: Inhibition of CETP in human plasma
IC50: recorded values

# molecule, IC50
records = [
    ("CCOC(=O)N1c2ccccc2N(C(C(=O)OC)c2cc(C(F)(F)F)cc(C(F)(F)F)c2)CC1CC (stereo in doubt; (D1)-16a)", "5 µM"),
    ("CCC1CN(C(c2cc(C(F)(F)F)cc(C(F)(F)F)c2)c2nnn(C)n2)c2cc(C(F)(F)F)ccc2N1CC1CCCC1 (stereo unspecified)", "0.854 µM"),
    ("CCOC(=O)N1c2cc(Cl)c(Cl)cc2N(C(C(=O)OC)c2cc(C(F)(F)F)cc(C(F)(F)F)c2)CC1CC (stereo in doubt; (D2)-18b)", "93.4 µM"),
    ("CCOC(=O)N1c2ccccc2N(C(Cc2ccccc2)C(=O)OC)CC1CC (stereo in doubt; (D2)-9b)", "> 100 µM"),
    ("CCOC(=O)N1c2cc(Cl)c(Cl)cc2N(C(C(=O)OC)c2cc(C(F)(F)F)cc(C(F)(F)F)c2)CC1CC (stereo in doubt; (D1)-18a)", "92.5 µM"),
    ("CCC1CN(C(c2cc(C(F)(F)F)cc(C(F)(F)F)c2)c2nnn(C)n2)c2cc(C(F)(F)F)ccc2N1C(=O)N(C)C (stereo unspecified)", "100 µM"),
    ("CCOC(=O)N1c2ccccc2N(C(Cc2cc(C(F)(F)F)cc(C(F)(F)F)c2)C(=O)OC)CC1CC (stereo in doubt; (D2)-10b)", "> 100 µM"),
    ("CCCCC(CC)COC(=O)N1c2ccc(C(F)(F)F)cc2N(C(c2cc(C(F)(F)F)cc(C(F)(F)F)c2)c2nnn(C)n2)CC1CC (stereo unspecified)", "62.6 µM"),
    ("CCOC(=O)N1c2ccc(C(F)(F)F)cc2N(C(C(=O)OC)c2cc(C(F)(F)F)cc(C(F)(F)F)c2)CC1CC (stereo in doubt; (D2)-22b)", "0.56 µM"),
    ("CCOC(=O)N1c2ccc(C(F)(F)F)cc2N(C(c2cc(C(F)(F)F)cc(C(F)(F)F)c2)c2nnn(CC(N)=O)n2)CC1CC (stereo in doubt; (D1)-50a)", "5.22 µM"),
    ("CCOC(=O)N1c2ccccc2N(C(C(=O)OC)c2cc(C(F)(F)F)cc(C(F)(F)F)c2)CC1CC (stereo in doubt; (D2)-16b)", "8.6 µM"),
    ("CCOC(=O)N1c2ccc(C(F)(F)F)cc2N(C(c2cc(C(F)(F)F)cc(C(F)(F)F)c2)c2nnn(CC(=O)O)n2)CC1CC (stereo unspecified)", "54.6 µM"),
    ("CCC1CN(C(c2cc(C(F)(F)F)cc(C(F)(F)F)c2)c2nnn(C)n2)c2cc(C(F)(F)F)ccc2N1C(=O)NCCO (stereo in doubt; (D1)-33a)", "100 µM"),
    ("CCNC(=O)N1c2ccc(C(F)(F)F)cc2N(C(c2cc(C(F)(F)F)cc(C(F)(F)F)c2)c2nnn(C)n2)CC1CC (stereo unspecified)", "46.4 µM"),
    ("CCOC(=O)N1c2ccccc2N(C(Cc2cc(C(F)(F)F)cc(C(F)(F)F)c2)C(=O)OC)CC1CC (stereo in doubt; (D1)-10a)", "> 100 µM"),
    ("CCOC(=O)N1c2ccc(C(F)(F)F)cc2N(C(c2cc(C(F)(F)F)cc(C(F)(F)F)c2)c2nnn(CC(=O)OC(C)(C)C)n2)CC1CC (stereo unspecified)", "14.6 µM"),
    ("CCC1CN(C(c2cc(C(F)(F)F)cc(C(F)(F)F)c2)c2nnn(C)n2)c2cc(C(F)(F)F)ccc2N1CC1CCCCC1 (stereo in doubt; (D2)-39b)", "5.7 µM"),
    ("CCOC(=O)N1c2ccc(C(F)(F)F)cc2N(C(c2cc(C(F)(F)F)cc(C(F)(F)F)c2)c2nnn(C)n2)CC1CC (stereo in doubt; (D2)-28b)", "0.23 µM"),
    ("CCOC(=O)N1c2ccc(C(F)(F)F)cc2N(C(c2cc(C(F)(F)F)cc(C(F)(F)F)c2)c2nnn(C)n2)C[C@@H]1CC (stereo in doubt; (D2)-55c)", "1.5 µM"),
    ("CCOC(=O)N1c2ccc(C(F)(F)F)cc2N(C(c2cc(C(F)(F)F)cc(C(F)(F)F)c2)c2nnn(CCC(=O)OC)n2)CC1CC (stereo unspecified)", "4.42 µM"),
    ("CCC1CN(C(c2cc(C(F)(F)F)cc(C(F)(F)F)c2)c2nnn(C)n2)c2cc(C(F)(F)F)ccc2N1C(=O)OCc1ccccc1 (stereo unspecified)", "4.4 µM"),
    ("CCOC(=O)N1c2ccc(C(F)(F)F)cc2N(C(c2cc(C(F)(F)F)cc(C(F)(F)F)c2)c2nnn(CC3CC3)n2)CC1CC (stereo unspecified)", "4.55 µM"),
    ("CCOC(=O)N1c2ccc(C(F)(F)F)cc2N(C(c2cc(C(F)(F)F)cc(C(F)(F)F)c2)c2nnn(C)n2)C[C@H]1CC (stereo in doubt; (D1)-55a)", "0.44 µM"),
    ("CCOC(=O)N1c2ccc(C(F)(F)F)cc2N(C(C(=O)OC)c2cc(C(F)(F)F)cc(C(F)(F)F)c2)CC1CC (stereo in doubt; (D1)-22a)", "0.5 µM"),
    ("CCOC(=O)N1c2ccc(C(F)(F)F)cc2N(C(c2cc(C(F)(F)F)cc(C(F)(F)F)c2)c2nnn(CCC#N)n2)CC1CC (stereo unspecified)", "3.42 µM"),
    ("CCOC(=O)N1c2ccc(C(F)(F)F)cc2N(C(c2cc(C(F)(F)F)cc(C(F)(F)F)c2)c2nnn(C)n2)C[C@@H]1CC (stereo in doubt; (D1)-55b)", "47.5 µM"),
]

###

IC50: recorded values
target: Cholesteryl ester transfer protein (Homo sapiens, UniProt P11597); experiment: Inhibition of CETP in human plasma; type: cell-free

# molecule, unit-abbreviation, IC50
records = [
    ("CCC1CN(C(c2cc(C(F)(F)F)cc(C(F)(F)F)c2)c2nnn(C)n2)c2cc(C(F)(F)F)ccc2N1CC1CCCCC1 (stereo in doubt; (D1)-39a)", "nM", 1300),
    ("CCOC(=O)N1c2ccc(C(F)(F)F)cc2N(C(c2cc(C(F)(F)F)cc(C(F)(F)F)c2)c2nnn(CCO)n2)CC1CC (stereo in doubt; (D1)-46a)", "nM", 2260),
    ("CCC1CN(C(c2cc(C(F)(F)F)cc(C(F)(F)F)c2)c2nnn(C)n2)c2cc(C(F)(F)F)ccc2N1C[C@H]1CC[C@H](CC(=O)O)CC1 (stereo partly drawn)", "nM", 2910),
]

###

assay: Volume of distribution in rat at 2 mg/kg, iv; format: ADME, organism-based; parameters: dose 2 mg/kg, route intravenous; details: in vivo
measured-parameter: Vd (L/kg)

# compound, measured-value
measured = [
    ("CCOC(=O)N1c2ccc(C(F)(F)F)cc2N(C(c2cc(C(F)(F)F)cc(C(F)(F)F)c2)c2nnn(C)n2)C[C@H]1CC (stereo in doubt; (D2)-55d)", 2.6),
]

###

assay: Clearance in rat at 2 mg/kg, iv; assay type: ADME, organism-based; design: dose 2 mg/kg, route intravenous; conditions: in vivo
measured-parameter: clearance (mL/min/kg)

# molecule, measured-value
rows = [
    ("CCOC(=O)N1c2ccc(C(F)(F)F)cc2N(C(c2cc(C(F)(F)F)cc(C(F)(F)F)c2)c2nnn(C)n2)C[C@H]1CC (stereo in doubt; (D2)-55d)", 13),
]

###

assay: Half life in rat at 2 mg/kg, iv; type: ADME, organism-based; parameters: dose 2 mg/kg, route intravenous; conditions: in vivo

# compound, half-life [h]
rows = [
    ("CCOC(=O)N1c2ccc(C(F)(F)F)cc2N(C(c2cc(C(F)(F)F)cc(C(F)(F)F)c2)c2nnn(C)n2)C[C@H]1CC (stereo in doubt; (D2)-55d)", 2.4),
]
